Kindly supply the reported pull-down binding Z-score values for the records listed here.
Test system: TO-N3-2 (biotin conjugate)
Assay: pull-down binding Z-score (relative to library population); higher = stronger binding
Details: RNA library: Library-2

Some solved cases for reference:
# residue.string, observed.measurement
data = [
    ("AUGAGAAGUGCUCUGCCUAUACAGUUGAACUCGGUACAGAAGUAAAUGAGUUCGCCUGUGUUGUGGCAGAUGCUGUCAU [SHAPE_invitro_SARS-CoV-2_Motif_53]", 2.07),
    ("UCCGGCCGGCCAUGCUGGCGGGG [hsa-mir-762]", 0.213),
    ("GGAGAGGAUCCACCUGUCCUGUCC [hsa-mir-6165]", 0.393),
    ("UUUGCCAUUAAAAGUAAUGGUAAA [hsa-mir-548x-2]", -1.58),
    ("GACUUAUGAAAACUAUAGGUC", -0.341),
    ("AAGCUGAUGAGUACGAACUUAUGUACUCAUUCGUUU", -0.895),
]

For every item below, please supply its pull-down binding Z-score.
1. CCAUCAAGCCCCACCAGAAGGUGGAGGCCCAGGUGAG [hsa-mir-4721]
2. AUAUAAGGGAAGGCAUUAUAG [hsa-mir-3117]

Out:
1. 0.864
2. -0.234

###

System: TO-N3 (biotin conjugate)
Experiment: pull-down binding Z-score (relative to library population); higher = stronger binding
Details: RNA library: Library-2
Hi all, reminder that labels come from pull-down binding Z-score, split as lower range (below -0.6), middle range (-0.6 to below 0.3), upper range (0.3 or more)

Some solved entries appear below for comparison.
# residue.string, qualitative.label
data = [
    ("GAUGAAGAUUAAUCCCUAAUCCCCAACA [hsa-mir-6757]", "middle range"),
    ("AGAUAUAUAUAUACCUCAUAUGUAUAUGGUAUAC [hsa-mir-4777]", "lower range"),
    ("AACACCCAUCCCAGGAUUGCUGAUGGGUGUU [hsa-mir-5705]", "lower range"),
    ("AAGUGCCGUCCUCAUGAGCCCCU [hsa-mir-6769b]", "upper range"),
    ("UGGAAGGAAUGGGAUCUACUUCCA [hsa-mir-3612]", "middle range"),
    ("CUUAGAUUUUUCCAUCUUUGUAUCUAG [hsa-mir-29b-2]", "lower range"),
    ("GCUUGGAGAAAAGC [SHAPE_invitro_SARS-CoV-2_Motif_326]", "lower range"),
    ("GUGGUGGGCACUGCUGGGGUGGGCACAGCAGCCAUGCAGAGCGGGCAUUUGACCCCGUGCCACCCUUUUCCCCAG [hsa-mir-1227]", "upper range"),
    ("UUUCUGUUGUCUGAAAGAAGAGAAA [hsa-mir-526b_518a-1]", "lower range"),
    ("GCACUACAGCUAAGGCUAUGGAGC [IAV_invivo_M1_M2_7_Motif_13+IAV_invivo_M1_M2_7_Motif_13]", "middle range"),
]

In: # bin label for AGUCUCUGAAGAGAGCUGUGGACUGA [hsa-mir-6721]
Out: upper range

In: Next: GCUGAGGUUGCGUUGACGCUCGC [hsa-mir-1292]
Out: upper range

###

System: TO-N3 (biotin conjugate)
Test: pull-down binding Z-score (relative to library population); higher = stronger binding
Conditions: RNA library: Library-2
value.kind: pull-down binding Z-score
Numbers only.

As a guide, the following entries are already answered.
# residue.string, pull-down binding Z-score
data = [
    ("GUCACAAAUUCAAAUAAAGUGAG [hsa-mir-4693]", 1.03),
    ("CUGGUAGUAUAAAACCCAG [hsa-mir-934]", -0.151),
    ("AAAUUUACAAGAAUUU [SHAPE_invivo_SARS-CoV-2_Motif_380]", -0.556),
    ("ACAGAGUGAGAUGGUCUUGUUUUGU [hsa-mir-5684]", -0.673),
]

In: Form: Entry = GCUGGUAAUGUUCAACUCAGGGUUAUUGGACAUUCUAUGC [SHAPE_invivo_SARS-CoV-2_Motif_203] | System = TO-N3 (biotin conjugate) | pull-down binding Z-score = ____
Out: -0.313

###

I'd appreciate it if you could supply pull-down binding Z-score values for the items below.
Tested on: TO-3-N3 (biotin conjugate)
Test: pull-down binding Z-score (relative to library population); higher = stronger binding
Settings: RNA library: Library-2
Numbers only.

# residue.string, pull-down binding Z-score
measured = [
    ("UAGUCUAAUAGGGACUA [hsa-mir-5681b]", 0.02),
    ("UGUAAAAUGUAAUAACAUUUCUUAUGUUUAAAACACUUUACA [hsa-mir-4801]", -0.755),
    ("CCCAAUCGUGGCGUGUCGGCCUGCUUCGGCAGGCACUGGCGCCG [Pepper530]", 0.37),
]

The following sequences each have a reported value; give each one's pull-down binding Z-score.
1. UGGGUUGUGUCAGUGUCAGACCUC [hsa-mir-146a]
2. GCUAGCUCUUGGAGGUUCCGUGGCUAUAAAGAUAACAGAACAUUCUUGGAAUGCUGAUCUUUAUAAGCUCAUGGGACACUUCGCAUGGUGGACAGC
3. GGAGAGGAUCCACCUGUCCUGUCC [hsa-mir-6165]
4. CUAUCCUUCCCUUGGAAAAUGAUCUGAG [hsa-mir-4770]

Out:
[-0.496, 0.837, 0.416, -0.188]

Please give pull-down binding Z-score for each item listed below.
1. CAAGUCCGUCUUCCUGAGAGGUUUG [hsa-mir-133b]
2. AGCCUUCUAUUAUGCCCAGACAGGGCCACCAGAGGGCU [hsa-mir-4448]
3. GGGAACUGGUGAGUUGUACAUAGAAAUGCUUUCUAACUCC [hsa-mir-4499]

Out:
[-0.412, -0.471, -0.123]

###

System: TO-N3 (biotin conjugate)
Assay: pull-down binding Z-score (relative to library population); higher = stronger binding
Conditions: RNA library: Library-2
Respond with YES for pull-down binding Z-score values of -0.6 and above, NO for values below.

Example entries and their recorded answers appear below.
# residue.string, qualitative.label
measured = [
    ("CUGUGAGGACAUCCAGGGUCACAG [hsa-mir-125a]", "YES"),
    ("UACCAGCUGUACUCAACUCAAUUGAGUACAGACACUGGUG [DMSMaPseq_invitro_SARS-CoV-2_Motif_468]", "NO"),
    ("GCGGCUGUUAAUGAUUUUAACAGUUGC [hsa-mir-449c]", "NO"),
    ("GCCCUUAUAGGGC [IAV_invivo_NA_6_Motif_5+IAV_invivo_NA_6_Motif_5]", "YES"),
    ("GGACAAUUCACCUAAUUUAGCAUGGCCUCUUAUUGUAACAGCUUUAAGGGCCAAUUCUGCUGUCAAAUUACAGAAUAAUGAGCUUAGUCC", "YES"),
    ("UGACCAGUCUUCUUACAUCGUUGAUAGUGUUACAGUGAAGAAUGGUUCCAUCCAUCUUUACUUUGAUAAAGCUGGUCA", "NO"),
    ("CUUGGGCCCAUUCCUUUCCUUACCCUAC [hsa-mir-6798]", "YES"),
    ("CGGUGGUCCCUCCCG [hsa-mir-3687-1_3687-2]", "YES"),
]

In: Record ACCCUCAAAAAGAGAUGGCAACUAGCACUCUCCAAGGGU ; criterion: pull-down binding Z-score no lower than -0.6. Met?
Out: YES

In: // next record AGGGCAGCUCCCAUGACUGCCUGACCGC [hsa-mir-6880]
Out: YES

In: Again, but for UGCCAUUAAAAGUAAUGGCA [hsa-mir-548i-3_548i-2_548i-1]
Out: YES

In: Then UUGAGAAGUAAUUGA [hsa-mir-548ak] ?
Out: YES

In: Consider next the sequence GUUUAUGAAAAACUCAAACCCGUCCUUGAUUGGCUUGAAGAGAAGUUUAAGGAAGGUGUAGAGUUUCUUAGAGAC in the same way.
Out: YES

In: Record: AUGGAUAUGGGAACUGUGAUGUCCA [hsa-mir-4768]
Out: YES

In: For UCUGUACCGUCUGCGGUAUGUGGA [DMSMaPseq_invitro_SARS-CoV-2_Motif_240] then?
Out: NO

In: Please answer likewise for UGCCGACUACUAUAGCAAAGAAUACUGUUAAGAGUGUCGGUA
Out: YES

In: Also check CCAUGUGAGUGAAGCCUGAUCAUCAUGUG [hsa-mir-8070]
Out: YES

In: Note, next up: UUGAUUCAGUAAAACAUUCAA [hsa-mir-891b]
Out: NO

In: Also AUAUUGACACUAUAACAAUAAUGUCAAUAU [hsa-mir-4795] , if possible.
Out: NO

In: Record: CAUGUGCUGAGUUCGUGCCAUAUG [hsa-mir-654]
Out: YES
